Task for the reader: assign each of the following compounds its reported melting point.
Kindly answer with a numeric value in °C, unit omitted.

Which melting point value belongs to Cc1ccc([N+](=O)[O-])cc1S(=O)(=O)Cl ?
44

Sample CN1C(C(=O)Nc2ccccn2)=C(O)c2ccccc2S1(=O)=O — what was its melting point?
198

Please report the recorded melting point for O=C1CCC(NC(=O)OCc2ccccc2)CC1 .
82

Item under review: O=COc1ccc([N+](=O)[O-])cc1 . Reported melting point?
72

Reported melting point, compound C=Cc1ccc(I)cc1 : ____
44

Could you share which melting point value was measured for O=C(C1=NOC2C(=O)N(c3cc(Cl)ccc3Cl)C(=O)C12)c1cccs1 (stereo unspecified) ?
221

What value of measured melting point is listed for CON=C(C(=O)NC1C(=O)N2C(C(=O)OCOC(=O)C(C)(C)C)=C(C=Cc3scnc3C)CSC12)c1csc(N)n1 (stereo unspecified) ?
128

Return reported melting point; argument: COc1ccc(C=CC(=O)Nc2ccccc2C(=O)O)cc1OC
212

Look at this compound and give its reported melting point. CCCCCCC(=O)CCC
-9

If you can, please state the reported melting point value of NNC(=O)CNc1nc(N)n[nH]1 .
225

Give its melting point value. Item: Oc1cc(OCc2ccccc2)ccn1
196

State the recorded melting point for this entry: CN(C)c1cccc(C(=O)O)c1
151

If you can, please state the reported melting point value of Cc1nc(NS(=O)(=O)c2ccc(N)cc2)oc1C .
193

Which value of melting point has been reported for CC(=O)c1ccc([N+](=O)[O-])s1 in the records?
106

Please look up its melting point: Cc1ccc(-c2csc(N)n2)cc1
137

Consider the compound O=C(C(F)(F)F)C(F)(F)Cl and give its measured melting point.
-133

Need melting point, item Brc1cc(Br)c(Oc2c(Br)c(Br)c(Br)c(Br)c2Br)cc1Br
200

Consider the compound CC1=NNC(=O)N(N=Cc2cccnc2)C1 and give its measured melting point.
217

// lookup melting point for Cc1ccccc1NN=C1C(=O)NC(=S)NC1=O
242
